study_target: 5-hydroxytryptamine receptor 3A (Homo sapiens, UniProt P46098); note: assay procedure not described here
Sequence (P46098 whole entry): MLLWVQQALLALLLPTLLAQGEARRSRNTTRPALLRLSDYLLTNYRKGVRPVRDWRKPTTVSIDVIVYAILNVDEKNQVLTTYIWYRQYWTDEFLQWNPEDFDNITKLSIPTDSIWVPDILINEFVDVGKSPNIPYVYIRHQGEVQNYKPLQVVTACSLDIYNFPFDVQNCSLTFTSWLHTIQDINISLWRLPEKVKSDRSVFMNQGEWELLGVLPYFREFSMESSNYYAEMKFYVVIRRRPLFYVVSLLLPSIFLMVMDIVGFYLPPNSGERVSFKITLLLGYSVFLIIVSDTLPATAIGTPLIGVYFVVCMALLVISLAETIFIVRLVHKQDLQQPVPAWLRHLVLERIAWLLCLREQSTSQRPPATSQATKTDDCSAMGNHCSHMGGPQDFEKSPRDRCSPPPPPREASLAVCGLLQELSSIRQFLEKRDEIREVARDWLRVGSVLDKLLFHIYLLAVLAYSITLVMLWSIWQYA
Type: functional
Hi there, I'd appreciate the recorded AC50 for every entry that follows.

Field: example entries. Status: answers known.
>>> result("C[C@H]1C[C@@H]2[C@H]([C@@H](O)C[C@@]3(C)[C@H]2CC[C@]3(O)C(=O)CO)[C@@]2(C)C=CC(=O)C=C12 [METHYLPREDNISOLONE]")
"> 30 µM"
>>> result("CCCCC(C)(O)C/C=C/[C@H]1[C@H](O)CC(=O)[C@@H]1CCCCCCC(=O)OC (stereo partly drawn) [MISOPROSTOL]")
"> 30 µM"
>>> result("N/N=c1/cc2c(n[nH]1)CCN(C(=O)c1ccccc1)C2 [ENDRALAZINE]")
"> 30 µM"
>>> result("COC(=O)C1=C(C)NC(C)=C(C(=O)OC(C)C)C1c1cccc2nonc12 (stereo not drawn) [ISRADIPINE]")
"> 30 µM"
>>> result("C1=Cc2cccc(OCC3CNCCO3)c2C1 (stereo not drawn) [INDELOXAZINE]")
"25 µM"
>>> result("CCCCCOC(=O)Nc1nc(=O)n([C@@H]2O[C@H](C)[C@@H](O)[C@H]2O)cc1F [CAPECITABINE]")
"> 30 µM"

Provide the reported AC50 of each entry below, same order.
1. COC(=O)[C@H]1[C@@H](OC(=O)c2ccccc2)C[C@@H]2CC[C@H]1N2C [COCAINE]
2. CCC1(C2=CCCCCC2)C(=O)NC(=O)NC1=O [HEPTABARBITAL]

Output line:
1. > 30 µM
2. > 30 µM

----------
study_target: Adenosine receptor A1 (Homo sapiens, UniProt P30542); note: assay procedure not described here
Sequence (P30542 whole entry): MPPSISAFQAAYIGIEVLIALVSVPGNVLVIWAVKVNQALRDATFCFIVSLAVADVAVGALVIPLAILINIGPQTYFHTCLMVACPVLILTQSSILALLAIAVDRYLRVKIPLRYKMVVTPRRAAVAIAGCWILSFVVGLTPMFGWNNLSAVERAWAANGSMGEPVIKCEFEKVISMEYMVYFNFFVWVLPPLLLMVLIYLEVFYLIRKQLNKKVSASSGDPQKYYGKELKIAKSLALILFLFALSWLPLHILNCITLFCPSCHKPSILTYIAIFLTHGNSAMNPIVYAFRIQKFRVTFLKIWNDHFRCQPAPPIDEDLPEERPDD
recorded_endpoint: AC50

Please review the following examples before continuing.
>>> result("COC(=O)C1=C(C)NC(C)=C(C(=O)OCC(C)C)C1c1ccccc1[N+](=O)[O-] (stereo not given)")
"20.4 µM"
>>> result("CC(C)Cc1ccc(CC(=O)O)cc1")
"> 30 µM"

Could I get AC50 for every one of these entries?
1. CN1CCCC(n2nc(Cc3ccc(Cl)cc3)c3ccccc3c2=O)CC1 (stereo not given)
2. Nc1nc2ccc(OC(F)(F)F)cc2s1
3. C=C1CC[C@@]2(O)[C@H]3Cc4ccc(O)c5c4[C@@]2(CCN3CC2CC2)[C@H]1O5
4. CCCCOc1cc(C(=O)NCCN(CC)CC)c2ccccc2n1

Output line:
1. > 30 µM
2. > 30 µM
3. > 30 µM
4. > 30 µM

# return AC50 for each item in the list
1. CCNC(C)Cc1cccc(C(F)(F)F)c1 (stereo not given)
2. CC(C)(Oc1ccc(C2CC2(Cl)Cl)cc1)C(=O)O (stereo not given) [CIPROFIBRATE]
3. NS(=O)(=O)c1cc(Cl)c(Cl)c(S(N)(=O)=O)c1 [DICHLORPHENAMIDE]
4. CN(CCCN1c2ccccc2CCc2ccccc21)CC(=O)c1ccc(Cl)cc1

Output line:
["> 30 µM", "> 30 µM", "> 10 µM", "> 30 µM"]

----------
study_target: Mu-type opioid receptor (Homo sapiens); note: assay procedure not described here
Sequence (P35372 whole entry): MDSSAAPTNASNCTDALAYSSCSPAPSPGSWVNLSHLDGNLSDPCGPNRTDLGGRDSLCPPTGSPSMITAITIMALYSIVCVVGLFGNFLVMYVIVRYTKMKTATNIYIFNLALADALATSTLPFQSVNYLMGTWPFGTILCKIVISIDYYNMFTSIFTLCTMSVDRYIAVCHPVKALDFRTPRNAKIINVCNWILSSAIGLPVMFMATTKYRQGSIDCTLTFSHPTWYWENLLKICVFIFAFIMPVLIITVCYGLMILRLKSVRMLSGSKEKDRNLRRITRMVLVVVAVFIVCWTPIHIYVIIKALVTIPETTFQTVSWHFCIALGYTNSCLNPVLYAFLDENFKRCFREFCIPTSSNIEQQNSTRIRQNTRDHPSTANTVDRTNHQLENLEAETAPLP
recorded_endpoint: AC50

>>> result("C[C@@H]1O[C@@H](OC[C@H]2O[C@@H](Oc3c(-c4ccc(OCCO)c(OCCO)c4)oc4cc(OCCO)cc(O)c4c3=O)[C@H](O)[C@@H](O)[C@@H]2O)[C@H](O)[C@H](O)[C@H]1O")
"> 30 µM"
>>> result("CCCC1C(=O)N2C(N(C)C)=Nc3ccc(C)cc3N2C1=O (centres undefined)")
"> 30 µM"

Please state, for each entry, its recorded AC50.
1. O=C1c2ccccc2C(=O)C1C(=O)C(c1ccccc1)c1ccccc1
2. CN1CCCC(CN2c3ccccc3Sc3ccccc32)C1 (centres undefined)

Output line:
> 30 µM
6.07 µM

----------
The following compounds each carry a recorded AC50 for Muscarinic acetylcholine receptor M2 (Homo sapiens).

>>> result("O=C(CCCCCCC(=O)Nc1ccccc1)NO [VORINOSTAT]")
"> 10 µM"
>>> result("O=C(O)CCCc1ccccc1 [PHENYLBUTANOIC ACID]")
"> 10 µM"
>>> result("CN(CCOc1ccc(NS(C)(=O)=O)cc1)CCc1ccc(NS(C)(=O)=O)cc1 [DOFETILIDE]")
"> 10 µM"
>>> result("CN(C)CCCN1c2ccccc2Sc2ccccc21 [PROMAZINE]")
"0.999 µM"

Now turn to the next compound.
Input line: Give AC50 for the following compound: COC(=O)[C@@H]1CC2=CC(=O)CC[C@]2(C)[C@@]23O[C@@H]2C[C@@]2(C)[C@@H](CC[C@@]24CCC(=O)O4)[C@H]13 [EPLERENONE]
Output line: > 10 µM

----------
Observed AC50 values for Equilibrative nucleoside transporter 1 (Homo sapiens, UniProt Q99808) are listed in what follows.

Record excerpt, results attached:
>>> result("COc1cc(Nc2c(C#N)cnc3cc(OCCCN4CCN(C)CC4)c(OC)cc23)c(Cl)cc1Cl [BOSUTINIB]")
"32.5 µM"
>>> result("COc1ccc(C(=O)NCc2ccc(OCCN(C)C)cc2)cc1OC [ITOPRIDE]")
"> 30 µM"
>>> result("CC(C)(C(=O)c1cccnc1)c1cccnc1 [METYRAPONE]")
"> 10 µM"
>>> result("Cc1c(O)c(=O)ccn1C [DEFERIPRONE]")
"> 30 µM"
>>> result("CC(C(=O)O)c1ccc(C(=O)c2cccs2)cc1 (stereo not given) [SUPROFEN]")
"> 10 µM"
>>> result("NC(N)=Nc1nc(CSCCC(N)=NS(N)(=O)=O)cs1 [FAMOTIDINE]")
"> 30 µM"
>>> result("NC[C@H]1CC[C@H](C(=O)O)CC1 [TRANEXAMIC ACID]")
"> 10 µM"
>>> result("CN1C(=O)CC(C)(c2ccccc2)C1=O (stereo not given) [METHSUXIMIDE]")
"> 10 µM"

Look at each compound and report its AC50.
1. Cc1cccc(C)c1OCC(C)N (stereo not given) [MEXILETINE]
2. CN1C(=O)CC(=O)N(c2ccccc2)c2cc(Cl)ccc21 [CLOBAZAM]

Output line:
> 30 µM
> 10 µM

----------
Record: AC50 reported on 5-hydroxytryptamine receptor 2B (Homo sapiens, UniProt P41595).
Sequence (P41595 whole entry): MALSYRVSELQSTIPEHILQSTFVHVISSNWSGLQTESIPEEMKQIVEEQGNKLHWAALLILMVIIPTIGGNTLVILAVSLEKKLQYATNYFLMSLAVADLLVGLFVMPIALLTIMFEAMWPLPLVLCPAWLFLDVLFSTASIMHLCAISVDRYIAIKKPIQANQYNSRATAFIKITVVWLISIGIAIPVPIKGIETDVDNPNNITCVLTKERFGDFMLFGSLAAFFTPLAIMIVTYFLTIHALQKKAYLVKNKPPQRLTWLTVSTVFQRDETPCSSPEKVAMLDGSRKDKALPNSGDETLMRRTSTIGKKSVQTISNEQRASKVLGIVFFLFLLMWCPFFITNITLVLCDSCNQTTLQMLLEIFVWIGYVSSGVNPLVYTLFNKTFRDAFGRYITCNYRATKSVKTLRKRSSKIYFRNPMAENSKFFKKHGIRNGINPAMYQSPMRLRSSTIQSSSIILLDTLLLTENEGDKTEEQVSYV

>>> result("O=C(O)CCCc1ccccc1")
"> 10 µM"
>>> result("CCCCCN(C)CCC(O)(P(=O)(O)O)P(=O)(O)O")
"> 10 µM"
>>> result("COC(=O)C1=C(C)NC(C)=C(C(=O)OC)C1c1ccccc1[N+](=O)[O-]")
"> 10 µM"
>>> result("CN(CCOc1ccc(NS(C)(=O)=O)cc1)CCc1ccc(NS(C)(=O)=O)cc1 [DOFETILIDE]")
"> 10 µM"
>>> result("O=P(O)(O)C(O)(Cc1cccnc1)P(=O)(O)O")
"> 10 µM"
>>> result("CN(C)CCCN1c2ccccc2Sc2ccccc21")
"0.192 µM"
>>> result("CN1CCc2cccc3c2[C@H]1Cc1ccc(O)c(O)c1-3")
"1.27 µM"
>>> result("CC(C)(N)Cc1ccc(Cl)cc1")
"3 µM"

Give AC50 for all molecules that follow.
1. CC(C)NCC(O)COc1ccc(COCCOC(C)C)cc1 (stereo not given)
2. NC(CO)C(=O)NNCc1ccc(O)c(O)c1O (stereo not given) [BENSERAZIDE]

Output line:
["> 10 µM", "> 10 µM"]

----------
Please go through the items and note down their AC50.
study_target: Vasopressin V2 receptor (Homo sapiens, UniProt P30518); note: assay procedure not described here
Sequence (P30518 whole entry): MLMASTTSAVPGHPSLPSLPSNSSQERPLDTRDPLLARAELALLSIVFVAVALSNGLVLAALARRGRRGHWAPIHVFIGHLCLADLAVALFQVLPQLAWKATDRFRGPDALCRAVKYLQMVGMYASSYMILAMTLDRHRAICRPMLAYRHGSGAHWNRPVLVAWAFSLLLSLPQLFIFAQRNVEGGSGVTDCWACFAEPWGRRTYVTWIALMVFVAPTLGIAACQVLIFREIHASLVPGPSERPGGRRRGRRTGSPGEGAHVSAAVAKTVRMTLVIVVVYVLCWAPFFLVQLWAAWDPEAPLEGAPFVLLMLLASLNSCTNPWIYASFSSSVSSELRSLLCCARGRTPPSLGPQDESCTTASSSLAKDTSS

>>> result("CN(CCOc1ccc(NS(C)(=O)=O)cc1)CCc1ccc(NS(C)(=O)=O)cc1 [DOFETILIDE]")
"> 30 µM"
>>> result("O=C(C[S+]([O-])C(c1ccccc1)c1ccccc1)NO (configuration not stated)")
"> 30 µM"
>>> result("CN(C)CCCN1c2ccccc2Sc2ccccc21 [PROMAZINE]")
"> 30 µM"
>>> result("CC(C)(C(=O)c1cccnc1)c1cccnc1 [METYRAPONE]")
"> 10 µM"
>>> result("COC(=O)N[C@H](C(=O)N1CCC[C@H]1c1nc(-c2ccc(-c3ccc(-c4c[nH]c([C@@H]5CCCN5C(=O)[C@@H](NC(=O)OC)C(C)C)n4)cc3)cc2)c[nH]1)C(C)C")
"> 30 µM"

Batch lookup, AC50 per entry.
1. C1=Cc2cccc(OCC3CNCCO3)c2C1 (configuration not stated) [INDELOXAZINE]
2. C#CCN(C)[C@H](C)Cc1ccccc1 [SELEGILINE]

Output line:
["> 30 µM", "> 10 µM"]
